B1: tRNA (parent)
chain: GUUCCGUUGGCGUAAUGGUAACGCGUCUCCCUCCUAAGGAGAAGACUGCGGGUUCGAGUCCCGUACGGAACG

Variants of: B1
Assay: yeast fitness relative to wild type (ratio to wild type); higher = fitter; tRNA-Arg(CCU), competitive growth, 37 C, YPD
Fewer inactive variants are shown than the library holds.
yeast fitness values for the variants below.

Consider the reported yeast fitness for these variants:
VARIANT KEY | yeast fitness
C11G A20U A45C | ≤ 0.5
A14G A43G G52C U53C G63C | ≤ 0.5
C22G C27G C31G C61G A69U | 0.62

Value of yeast fitness reported for the variant C24G C33A A70C is ≤ 0.5

Value of yeast fitness reported for the variant U19G A37G A65U A69U is ≤ 0.5

Value of yeast fitness reported for the variant C4A C5U C24U U53A A65G is ≤ 0.5

Value of yeast fitness reported for the variant C11G C66A is ≤ 0.5

Value of yeast fitness reported for the variant A21G G23A C27U C66U is 0.533

Value of yeast fitness reported for the variant C11U A21U G41C is 0.603
